Source listed as ChEMBL document CHEMBL3991601.

measurement-target: Cyclin-dependent kinase 13 (Homo sapiens); note: in the data inactive means no Kd found up to 30 µM
Sequence (Q14004 whole entry): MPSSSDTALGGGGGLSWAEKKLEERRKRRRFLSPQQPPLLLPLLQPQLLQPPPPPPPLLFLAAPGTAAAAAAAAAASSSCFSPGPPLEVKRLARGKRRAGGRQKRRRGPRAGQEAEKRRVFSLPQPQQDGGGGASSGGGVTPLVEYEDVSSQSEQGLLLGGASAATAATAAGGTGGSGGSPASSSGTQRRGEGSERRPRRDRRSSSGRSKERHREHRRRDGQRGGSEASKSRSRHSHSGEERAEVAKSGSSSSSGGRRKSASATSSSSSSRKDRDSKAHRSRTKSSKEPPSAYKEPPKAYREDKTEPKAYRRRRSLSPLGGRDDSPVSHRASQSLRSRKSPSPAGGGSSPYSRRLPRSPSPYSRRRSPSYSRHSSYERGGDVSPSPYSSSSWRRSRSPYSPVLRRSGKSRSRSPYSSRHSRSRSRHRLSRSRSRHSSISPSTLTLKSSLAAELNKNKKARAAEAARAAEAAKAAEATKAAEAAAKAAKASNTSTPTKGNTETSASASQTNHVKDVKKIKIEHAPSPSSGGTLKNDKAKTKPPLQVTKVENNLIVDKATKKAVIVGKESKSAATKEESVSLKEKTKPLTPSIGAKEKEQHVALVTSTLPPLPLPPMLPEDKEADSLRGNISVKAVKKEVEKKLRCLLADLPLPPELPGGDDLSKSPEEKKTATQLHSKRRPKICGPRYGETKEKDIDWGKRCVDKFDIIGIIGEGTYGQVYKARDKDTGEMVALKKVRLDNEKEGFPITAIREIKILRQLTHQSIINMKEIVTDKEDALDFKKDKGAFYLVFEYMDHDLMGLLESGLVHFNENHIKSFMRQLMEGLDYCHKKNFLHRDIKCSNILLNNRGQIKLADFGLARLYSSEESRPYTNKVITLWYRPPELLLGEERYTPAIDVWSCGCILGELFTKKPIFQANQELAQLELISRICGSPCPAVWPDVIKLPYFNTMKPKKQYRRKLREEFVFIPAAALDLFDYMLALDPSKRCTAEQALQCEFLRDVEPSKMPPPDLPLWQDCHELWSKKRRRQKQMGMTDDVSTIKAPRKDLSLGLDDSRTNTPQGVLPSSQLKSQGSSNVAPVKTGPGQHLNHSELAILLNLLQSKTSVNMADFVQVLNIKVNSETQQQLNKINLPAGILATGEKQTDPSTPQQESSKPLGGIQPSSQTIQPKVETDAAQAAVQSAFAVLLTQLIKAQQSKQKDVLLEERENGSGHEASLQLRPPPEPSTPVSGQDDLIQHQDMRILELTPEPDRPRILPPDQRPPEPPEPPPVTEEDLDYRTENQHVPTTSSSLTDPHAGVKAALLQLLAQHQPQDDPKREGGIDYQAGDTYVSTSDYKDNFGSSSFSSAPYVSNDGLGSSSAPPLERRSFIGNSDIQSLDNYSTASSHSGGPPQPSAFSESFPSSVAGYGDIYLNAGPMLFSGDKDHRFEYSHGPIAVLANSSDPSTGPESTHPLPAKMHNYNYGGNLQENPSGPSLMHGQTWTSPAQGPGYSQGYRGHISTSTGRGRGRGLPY
Activity calls are given as the source filed them.
Your response should consist of one outcome taken from yes (1) = active, no (0) = inactive

For orientation, consider the following solved cases.
• C=CC(=O)Nc1cccc(Nc2nc(Nc3ccc(N4CCN(C(C)=O)CC4)cc3OC)ncc2C(F)(F)F)c1 [ROCILETINIB] = no (0)
• Cc1cc(-c2cc(OC(=O)c3ccccc3)ccc2Cl)cc2nnc(Nc3ccc(OCCN4CCCC4)cc3)nc12 [TG100-801] = no (0)
• Cc1cc(C(=O)Nc2cc(Oc3ccc4nc(NC(=O)C5CC5)cn4n3)ccc2C)n(C)n1 [TAK-593] = no (0)

Please find the next compound below.
## Input How was COc1cc2nccc(Oc3ccc(NC(=O)C4(C(=O)Nc5ccc(F)cc5)CC4)cc3)c2cc1OC [CABOZANTINIB] classified in this test?
## Output no (0)

---

measurement-target: Dual specificity protein kinase CLK1 (Homo sapiens, UniProt P49759); note: in the data inactive means no Kd found up to 30 µM
Sequence (P49759 whole entry): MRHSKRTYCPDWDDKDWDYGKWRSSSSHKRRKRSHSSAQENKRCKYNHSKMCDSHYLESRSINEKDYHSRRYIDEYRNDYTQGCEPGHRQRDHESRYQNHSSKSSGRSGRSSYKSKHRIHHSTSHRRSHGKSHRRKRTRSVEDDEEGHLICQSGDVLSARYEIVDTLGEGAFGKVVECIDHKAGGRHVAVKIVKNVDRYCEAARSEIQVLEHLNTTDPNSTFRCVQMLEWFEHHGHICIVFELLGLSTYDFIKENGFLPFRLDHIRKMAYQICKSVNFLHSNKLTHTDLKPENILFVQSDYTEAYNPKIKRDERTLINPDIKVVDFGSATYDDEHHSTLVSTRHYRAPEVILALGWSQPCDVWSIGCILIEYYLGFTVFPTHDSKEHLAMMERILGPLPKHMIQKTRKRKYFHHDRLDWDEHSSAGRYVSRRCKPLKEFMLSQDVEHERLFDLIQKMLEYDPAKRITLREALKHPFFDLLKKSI
Calls of active or inactive are those of the source.
Your response should consist of one outcome taken from active, inactive

## Input How was "CC1(COc2ccc3c(c2)ncn3-c2ccc3cccc(N4CCC(N)CC4)c3n2)COC1" classified in this test?
## Output inactive

## Input How was "C[C@@H]1COC(Nc2ccc3ncnc(Nc4ccc(OCc5nccs5)c(Cl)c4)c3c2)=N1" classified in this test?
## Output inactive

---

measurement-target: UniProt:Q14680
Sequence (Q14680 whole entry): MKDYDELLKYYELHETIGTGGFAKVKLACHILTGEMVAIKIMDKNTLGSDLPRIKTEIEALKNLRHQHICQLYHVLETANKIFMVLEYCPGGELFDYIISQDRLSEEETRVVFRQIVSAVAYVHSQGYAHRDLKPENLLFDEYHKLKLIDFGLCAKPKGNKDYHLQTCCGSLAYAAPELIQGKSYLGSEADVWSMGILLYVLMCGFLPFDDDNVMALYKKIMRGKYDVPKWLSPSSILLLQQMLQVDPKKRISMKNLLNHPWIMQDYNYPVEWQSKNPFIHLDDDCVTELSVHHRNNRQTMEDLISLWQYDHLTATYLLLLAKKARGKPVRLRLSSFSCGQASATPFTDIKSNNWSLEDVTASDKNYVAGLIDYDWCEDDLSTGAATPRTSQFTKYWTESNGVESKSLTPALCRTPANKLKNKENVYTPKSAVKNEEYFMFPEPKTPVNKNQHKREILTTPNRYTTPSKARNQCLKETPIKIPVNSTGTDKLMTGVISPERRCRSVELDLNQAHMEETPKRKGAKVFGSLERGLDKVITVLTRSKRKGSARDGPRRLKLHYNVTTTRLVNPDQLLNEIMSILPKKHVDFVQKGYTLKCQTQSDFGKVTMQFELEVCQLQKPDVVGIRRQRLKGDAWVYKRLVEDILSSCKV
Activity calls are given as the source filed them.
Your response should consist of one outcome taken from active, inactive

* COc1cc2ncnc(Nc3ccc(F)c(Cl)c3)c2cc1NC(=O)/C=C/CN1CCCCC1 [DACOMITINIB ANHYDROUS] | inactive
* S=C(NCc1ccc2c(c1)OCO2)N1CCN(c2ncnc3c2oc2ccccc23)CC1 | inactive
* O=S(=O)(c1cccc2c(O)nccc12)N1CCCNCC1 [HYDROXYFASUDIL] | inactive

## Input How was "COc1cc2ncnc3c2cc1OCCCCCN(C)Cc1ccc(Br)cc1N3" classified in this test?
## Output inactive

## Input How was "O=C(Nc1ccc(OC(F)(F)F)cc1)c1sccc1NCc1ccnc2ccccc12" classified in this test?
## Output inactive

## Input How was "CCN1CCN(Cc2ccc(Nc3ncc(F)c(-c4cc(F)c5nc(C)n(C(C)C)c5c4)n3)nc2)CC1" classified in this test?
## Output inactive

## Input How was "C#Cc1cccc(Nc2ncnc3cc4c(cc23)OCCOCCOCCO4)c1" classified in this test?
## Output inactive

## Input How was "Cc1ccc(C(=O)Nc2ccc(Oc3cc4cnn(C)c4cc3-c3cn[nH]c3)c(F)c2)c(=O)n1-c1ccc(F)cc1" classified in this test?
## Output inactive

## Input How was COc1ccc(-c2ccc3ncc4c(c3c2)n(-c2ccc(N3CCNCC3)c(C(F)(F)F)c2)c(=O)n4C)cn1 [BGT-226 FREE BASE] classified in this test?
## Output active

## Input How was "Cc1cc(-c2cc(OC(=O)c3ccccc3)ccc2Cl)cc2nnc(Nc3ccc(OCCN4CCCC4)cc3)nc12" classified in this test?
## Output inactive

## Input How was "O=S(=O)(c1cccc2cnccc12)N1CCCNCC1" classified in this test?
## Output active

---

Observed Kd values for Ribosyldihydronicotinamide dehydrogenase [quinone] (Homo sapiens) are listed in what follows.
Calls of active or inactive are those of the source.

- O[C@H]1CC[C@H](Nc2ncc3nc(Nc4c(F)cc(F)cc4F)n([C@H]4CCOC4)c3n2)CC1: > 30 µM (inactive)
- Cc1cc(-c2cc(OC(=O)c3ccccc3)ccc2Cl)cc2nnc(Nc3ccc(OCCN4CCCC4)cc3)nc12: > 30 µM (inactive)

# evaluate next
// field: Kd; key: "COc1cc(F)c(F)c(Nc2ccc(I)cc2F)c1NS(=O)(=O)C1(C[C@H](O)CO)CC1" ; value = > 30 µM (inactive)
